Numbers sourced from paper PMC7082139.

- target.system: T1, PhoB (Pseudomonas aeruginosa PAO1, UniProt P23620 1-229)
- T1 sequence: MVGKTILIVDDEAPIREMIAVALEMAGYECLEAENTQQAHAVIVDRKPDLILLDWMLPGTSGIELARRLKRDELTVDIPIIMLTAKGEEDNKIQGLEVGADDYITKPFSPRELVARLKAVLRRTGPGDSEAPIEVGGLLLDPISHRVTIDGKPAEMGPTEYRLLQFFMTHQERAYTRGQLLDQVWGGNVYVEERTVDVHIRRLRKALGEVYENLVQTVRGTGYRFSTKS
- assay.procedure: EMSA
- condition.parameters: protein: recombinant; tags: C-terminal His (pET-28b, NcoI-XhoI); chain copies: 2; label: biotin 3'-end; blunt
outcome.measure: binding result

lasI promoter (dsDNA) DNA 1: TGCTCTGATCTTTTCGGACGTTTCTTCGAGCCTAGCAAGGGTCCGGGTTCACCGAAATCTATCTCATTTGCTAGTTATAAAATTATGAAATTTGCATAAATTCTTCAGCTTCCTATTTGGAGGAAGTGAAG DNA 2: CTTCACTTCCTCCAAATAGGAAGCTGAAGAATTTATGCAAATTTCATAATTTTATAACTAGCAAATGAGATAGATTTCGGTGAACCCGGACCCTTGCTAGGCTCGAAGAAACGTCCGAAAAGATCAGAGCA | binds
